- SYSTEM_NAME: Small ubiquitin-related modifier 1 (Homo sapiens)
- METHOD_SUMMARY: modulators of SUMO1 protein-protein interactions, primary screen, biochemical, uHTS (AID 602429)
- STATED_CONDITIONS: SUMO1 binding to a labelled peptide, TR-FRET, 1 h; at 20 µM; stronger effect = higher value
Screen size: about 360,000 compounds; about 1,200 (0.33%) were called active. The full list was thinned out, with actives kept by preference.
Quick reference for inhibition among some compounds
EXPERIMENTAL_READOUT: inhibition (%)

COc1ccc(C(=O)N/N=C(\C)CC(=O)Nc2ccc(Cl)cn2)cc1 = -4.09
COc1ccc(OCCCC(=O)Nc2nnc(C3CCCO3)s2)cc1 (stereo unspecified) = 0.167
Cc1nc([N+](=O)[O-])c(NCCCO)n1Cc1ccccc1 = -1.9
COc1ccc2c(CC(=O)Nc3nnc(C4CC4)s3)coc2c1 = -1.1
Cn1c(N)c(C(=O)COC(=O)/C=C/c2ccc(OC(F)F)cc2)c(=O)n(C)c1=O = -2.46
COc1ccccc1NC(=O)c1cc(Cl)nnc1Cl = -6.09
